biological target: HIV-1 protease (Human immunodeficiency virus type 1 group M subtype B, UniProt P04585); test: biochemical; details: read-out: HIV-1 Protease % Inhib, dose 10.000 uM
property: inhibition at 10 µM (%)

[[record]]
molecule = "CCC(c1cccc(NC(=O)CCc2c[nH]c3ccccc23)c1)c1c(O)c2ccccc2oc1=O (stereo not shown)"
resultunits = "%"
measured = 61

[[record]]
molecule = "CC(C)S(=O)(=O)Nc1cccc(C(c2c(O)c3c(oc2=O)CCCCCC3)C2CC2)c1 (stereo not shown)"
resultunits = "%"
measured = 114

[[record]]
molecule = "CS(=O)(=O)Nc1cccc(C(c2c(O)c3c(oc2=O)CCCCCC3)C2CC2)c1 (stereo not shown)"
resultunits = "%"
measured = 102

[[record]]
molecule = "CCC(c1ccccc1)c1c(O)c2cc(OC)ccc2oc1=O (stereo not shown)"
resultunits = "%"
measured = 10.3


----------
biological target: HIV-1 protease (Human immunodeficiency virus type 1 group M subtype B, UniProt P04585); assay: biochemical; settings: read-out: HIV-1 Protease % Inhib, dose 0.123 uM
property: inhibition at 0.123 µM (%)

[[record]]
compound = "O=c1oc2c(c(O)c1C(c1cccc(NS(=O)(=O)c3cccc(S(=O)(=O)NCc4ccccc4)c3)c1)C1CC1)CCCCCC2 (stereo not drawn) [Example 412]"
measured = 37.8

[[record]]
compound = "CC(C)S(=O)(=O)Nc1cccc(C(c2c(O)c3c(oc2=O)CCCCCC3)C2CC2)c1 (stereo not drawn) [Example 328]"
measured = 11.9

[[record]]
compound = "O=c1oc2c(c(O)c1C(c1cccc(NS(=O)(=O)c3ccc(NO)cc3)c1)C1CC1)CCCCCC2 (stereo not drawn) [Example 348 (Second Title Compound)]"
measured = 38.6

[[record]]
compound = "O=c1oc2c(c(O)c1[C@H](c1cccc(NS(=O)(=O)c3cccc4cccnc34)c1)C1CC1)CCCCCC2 [Example 256]"
measured = 82.5

[[record]]
compound = "CC(C)C(c1cccc(NS(=O)(=O)c2cccnc2)c1)c1c(O)c2c(oc1=O)CCCCCC2 (stereo not drawn) [Example 417]"
measured = 36.4

[[record]]
compound = "O=c1oc2c(c(O)c1C(c1cccc(NS(=O)(=O)c3cccc(NS(=O)(=O)CCCCl)c3)c1)C1CC1)CCCCCC2 (stereo not drawn) [Example 313]"
measured = 104

[[record]]
compound = "CCCS(=O)(=O)Nc1cccc(C(c2c(O)c3c(oc2=O)CCCCCC3)C2CC2)c1 (stereo not drawn) [Example 324]"
measured = 44.3

[[record]]
compound = "CCCCC(c1cccc(NS(=O)(=O)c2ccc(F)cc2)c1)c1c(O)c2c(oc1=O)CCCCCC2 (stereo not drawn) [Example 422]"
measured = 100

[[record]]
compound = "CCCC1CCCCCc2c1oc(=O)c([C@H](c1ccccc1)C1CC1)c2O (mixture of isomers) [Example 235]"
measured = 24.8

[[record]]
compound = "CC(C)(C)c1ccc(S(=O)(=O)Nc2cccc(C(c3c(O)c4c(oc3=O)CCCCCC4)C3CC3)c2)cc1 (stereo not drawn) [Example 265]"
measured = 25.3

[[record]]
compound = "O=c1oc2c(c(O)c1C(c1cccc(NS(=O)(=O)c3cccs3)c1)C1CC1)CCCCCC2 (stereo not drawn) [Example 323]"
measured = 62.8

[[record]]
compound = "CCC(c1cccc(NS(=O)(=O)c2ccc(C#N)cc2)c1)c1c(O)c2c(oc1=O)CCCCCC2 (stereo not drawn) [Example 222]"
measured = 80.4

[[record]]
compound = "O=c1oc2c(c(O)c1[C@H](c1cccc(NS(=O)(=O)c3ccc(S(=O)(=O)c4ccccc4)s3)c1)C1CC1)CCCCCC2 [Example 404]"
measured = 58.3

[[record]]
compound = "Cc1c(Cl)cccc1S(=O)(=O)Nc1cccc(C(c2c(O)c3c(oc2=O)CCCCCC3)C2CC2)c1 (stereo not drawn) [Example 311]"
measured = 20.8

[[record]]
compound = "CCCCC(c1cccc(NS(=O)(=O)c2ccc(C#N)cc2)c1)c1c(O)c2c(oc1=O)CCCCCC2 (stereo not drawn) [Example 421]"
measured = 93.9


Origin of the recorded values: patent US5686486A
